- measuredTarget: CTLA-4 of the CTLA-4:B7-1[Biotinylated] Inhibitor Screening Assay kit (UniProt P16410)
- assaySummary: ELISA; CTLA-4:B7-1[Biotinylated] Inhibitor Screening Assay kit (BPS Bioscience) with the MBP–peptide–His-tag fusion protein; data not shown
quantity: pIC50
Give only the number. pIC50 is defined as minus log10 of concentration in molar units.

Inquiry: Annotate the binder CMHPFLPIVSHHFCER [MBP–C4m-3127 peptide–His-tag fusion protein] with its measured pIC50.
Reply text: 5.87

The reported numbers originate from paper PMC9784018.
